The measured values listed here are drawn from patent US10045985B2.

Give measured IC50 for each item. Keep answers brief.
target: BTK C481S enzyme (His-TEV-hsBTK(328-659)(C481S)) (Homo sapiens, UniProt Q06187, C481S); construct: His-TEV-hsBTK(328-659)(C481S); His (N); TEV cleavage site (N); test: Assay B: microfluidic off-chip mobility shift assay for potency against BTK C481S enzyme; settings: 90 min at 25° C.
Sequence (Q06187 328-659 C481S): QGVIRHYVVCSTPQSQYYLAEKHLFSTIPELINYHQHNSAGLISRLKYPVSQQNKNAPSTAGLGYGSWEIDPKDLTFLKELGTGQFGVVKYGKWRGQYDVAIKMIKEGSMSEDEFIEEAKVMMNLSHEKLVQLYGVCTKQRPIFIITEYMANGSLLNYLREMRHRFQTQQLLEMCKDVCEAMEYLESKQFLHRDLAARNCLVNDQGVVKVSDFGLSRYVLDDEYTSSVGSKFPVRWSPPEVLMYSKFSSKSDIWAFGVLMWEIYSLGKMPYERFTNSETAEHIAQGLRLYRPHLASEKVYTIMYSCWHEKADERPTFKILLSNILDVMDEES

compound	system tested	meas value
COCCOc1ccc(Nc2ncc(F)c(NC3CCCC(NC(=O)c4ccc(C(C)(C)C)cc4)C3O)n2)cc1 (racemic)	BTK C481S enzyme (His-TEV-hsBTK(328-659)(C481S)) (Homo sapiens, UniProt Q06187, C481S)	< 100 nM
COCCOc1ccc(Nc2ncc(F)c(N[C@@H]3CCC[C@@H](NC(=O)c4ccc(C(C)(C)C)cc4)C3O)n2)cc1 (stereo partly shown)	BTK C481S enzyme (His-TEV-hsBTK(328-659)(C481S)) (Homo sapiens, UniProt Q06187, C481S)	< 100 nM
COCCOc1ccc(Nc2ncc(F)c(Nc3cccc(NC(=O)CNc4cccc(Cl)c4)c3)n2)cc1	BTK C481S enzyme (His-TEV-hsBTK(328-659)(C481S)) (Homo sapiens, UniProt Q06187, C481S)	100 to 1000 nM
COCCOc1ccc(Nc2ncc(F)c(N[C@@H]3CCC[C@@H](NC(=O)c4ccc(C(C)(C)C)cc4)C3)n2)cc1 (racemic)	BTK C481S enzyme (His-TEV-hsBTK(328-659)(C481S)) (Homo sapiens, UniProt Q06187, C481S)	< 100 nM
COCCOc1ccc(Nc2ncc(F)c(NC3CCCC(NC(=O)CNc4cccc(Cl)c4)C3)n2)cc1 (racemic)	BTK C481S enzyme (His-TEV-hsBTK(328-659)(C481S)) (Homo sapiens, UniProt Q06187, C481S)	1000 to 5000 nM

Batch of 2 compounds: report IC50 for each.
1. COCCOc1ccc(Nc2ncc(F)c(NC3CCCC(NC(=O)c4cc5c(s4)CCCC5)C3O)n2)cc1 (racemic)
2. COCCOc1ccc(Nc2ncc(F)c(NC3CCCC(NC(=O)c4ccc(C5CC5)cc4)C3)n2)cc1 (stereo not shown)

**A:**
1. < 100 nM
2. 100 to 1000 nM

// batch mode: one IC50 value per listed entry
1. COCCOc1ccc(Nc2ncc(F)c(NC3CCCC(NC(=O)c4ccc(C(C)(C)C)cc4)C3)n2)cc1 (racemic)
2. COCCOc1ccc(Nc2ncc(F)c(NC3CCCC(NC(=O)c4cc(C(C)(C)C)on4)C3O)n2)cc1 (racemic)

**A:**
["100 to 1000 nM", "100 to 1000 nM"]

Batch lookup, IC50 per entry.
1. COCCOc1ccc(Nc2ncc(F)c(N3CCC[C@@H](NC(=O)CNc4cccc(Cl)c4)C3)n2)cc1
2. COCCOc1ccc(Nc2ncc(F)c(NC3CCCC(NC(=O)c4ccc(N(C)C)cc4)C3)n2)cc1 (stereo not shown)
3. COCCOc1ccc(Nc2ncc(F)c(Nc3cccc(NC(=O)c4ccc(C(C)(C)C)cc4)c3)n2)cc1
4. COCCOc1ccc(Nc2ncc(F)c(NC3CCCC(NC(=O)c4ccc(C(C)(C)O)cc4)C3)n2)cc1 (stereo not shown)

**A:**
["> 5000 nM", "100 to 1000 nM", "1000 to 5000 nM", "100 to 1000 nM"]

* * *

pIC50: −log10 of the molar value.
For full-length human BTK (Homo sapiens, UniProt Q06187), measured pIC50 is reported for the entries below.

As a guide, the following entries are already answered.
compound	meas value
COCCOc1ccc(Nc2ncc(F)c(N[C@@H]3CCC[C@@H](NC(=O)c4ccc(C(C)(C)C)cc4)C3O)n2)cc1 (some centres unmarked)	> 7.00
COCCOc1ccc(Nc2ncc(F)c(N3CCCC(CNC(=O)c4ccc(C(C)(C)C)cc4)C3)n2)cc1 (racemic)	< 5.30
COCCOc1ccc(Nc2ncc(F)c(NC3CCCC(NC(=O)c4ccc(C5CC5)cc4)C3)n2)cc1 (centres unmarked)	6.00 to 7.00
COCCOc1ccc(Nc2ncc(F)c(NC3CCCC(NC(=O)c4cc(C(C)(C)C)on4)C3O)n2)cc1 (racemic)	6.00 to 7.00
COCCOc1ccc(Nc2ncc(F)c(N3CC[C@H](NC(=O)c4ccc(C(C)(C)C)cc4)C3)n2)cc1	< 5.30
COCCOc1ccc(Nc2ncc(F)c(N[C@@H]3CCC[C@@H](NC(=O)c4ccc(C(C)(C)C)cc4)C3)n2)cc1 (racemic)	> 7.00

// each compound listed below needs its pIC50
1. COCCOc1ccc(Nc2ncc(F)c(NC3CCCC(NC(=O)CNc4cccc(Cl)c4)C3)n2)cc1 (racemic)
2. COCCOc1ccc(Nc2ncc(F)c(N3CCCC4(CCCN(C(=O)c5ccc(C(C)(C)C)cc5)C4)C3)n2)cc1 (centres unmarked)

**A:**
["5.30 to 6.00", "< 5.30"]
